The reported measurements were obtained from PubChem BioAssay.

Consider the following compounds; for each one, report its inhibition.
target: L-lactate dehydrogenase (Plasmodium falciparum (isolate CDC / Honduras)); experiment: PfLDH activity inhibition – cell lysate, 3D7 strain, counter-screen for P. falciparum growth inhibition project (AID 2304);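 also: 0% = vehicle and 100% = reference inhibitor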; conditions: P. falciparum 3D7 crude extract, LDH APAD/NBT absorbance; at 2 µM; hits give high values
The source made the active and inactive calls. No rule for the calls is given here.

# example entries with known answers
Query: Quick check: inhibition of Cc1cc(C(F)(F)F)cc(-n2ncc(-c3ccc(C(=O)NCCNCc4ccccc4)cc3)c2N)n1 ?
Response: -1% (inactive)

Query: Quick check: inhibition of Cc1nc(-c2cccc(Nc3nccc(NCC(O)c4cccc(C(F)(F)F)c4)n3)c2)cs1 (stereo not drawn) ?
Response: 0% (inactive)

Query: Quick check: inhibition of O=C(Cc1cccnc1)N(Cc1ccc(-c2ccc(CNCc3cccnc3)cn2)cc1)C1CCN(Cc2ccccc2)CC1 ?
Response: -3% (inactive)

Query: Quick check: inhibition of O=C(/C=C/c1ccc(Cl)c(Cl)c1)NCCCCCN1CCC(NS(=O)(=O)c2cc(Cl)cc(Cl)c2)CC1 ?
Response: 3% (inactive)

Query: Quick check: inhibition of COc1ccc(CCNCCCCCCNCCc2cccc([N+](=O)[O-])c2)cc1OC ?
Response: -6% (inactive)

Each of the following entries comes with a recorded value; kindly state inhibition for each.
1. OCC(c1ccccc1)n1c(COc2ccc(Cl)cc2)nc2c(OCCCN3CCCCC3)cccc21 (stereo not drawn)
2. CCOC(=O)C1CCN(CCOc2cc(NC(=O)/C=C/c3ccccc3Cl)ccc2Br)CC1

Response:
1: -7% (inactive); 2: -2% (inactive)

Each of the following entries comes with a recorded value; kindly state inhibition for each.
1. CC(C)CCNCc1ccc(OCc2cccc(COc3ccc(CNCCC(C)C)cc3I)c2)c(I)c1
2. Cc1cc(N)c2cc(NC(=O)/C=C/c3ccccc3)ccc2n1

Response:
2% (inactive)
0% (inactive)

Each of the following entries comes with a recorded value; kindly state inhibition for each.
1. Cc1noc(C)c1-c1cccc(CNCc2ccc(-c3ccc(-c4nc5ccc(C(F)(F)F)cc5[nH]4)cc3)cc2)c1
2. CC(C)c1nc(N2CCN(C(=S)NCc3ccccc3)CC2)c(C#N)c2c1COC(C)(C)C2
3. O=C(Nc1ccc(-c2nc3ccccc3[nH]2)cc1)c1cccc([N+](=O)[O-])c1
4. O=C(/C=C/c1ccc(Cl)c(Cl)c1)NCCCCCN1CCCC(CNC(=O)Nc2ccc(Oc3ccccc3)cc2)C1 (stereo not drawn)
5. CCCNCc1ccc(-c2ccc(CN(CCOC)C(=O)c3nn(-c4ccccc4)nc3C)cc2)nc1

Response:
1: 2% (inactive); 2: 6% (inactive); 3: -3% (inactive); 4: -2% (inactive); 5: 3% (inactive)

---

test: antimalarial activity against Dd2 strain (AID 2302);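 also: 0% = DMSO untreated growth and 100% = chloroquine plus artemisinin killed control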; details: P. falciparum Dd2 in RBCs, LDH growth readout, 72 h; at 2 µM; hits give high values
property: growth inhibition (%)
Numbers only, in %.

Query: Quick check: growth inhibition of O=C(NCCCCCN1CCC(c2c[nH]c3ccccc23)CC1)Nc1ccc(Cl)cc1Cl ?
Response: 15

Each of the following entries comes with a recorded value; kindly state growth inhibition for each.
1. O=C(Nc1ccc(-c2ccccc2)c(OCCN2CCNCC2)c1)c1ccc(-c2ccc(Cl)cc2)cc1
2. Cc1ccc(CON2C(N)=NC(N)=NC2(C)C)cc1C
3. O=C(Nc1ccc(-c2csc3nccn23)cc1)c1ccc(Cl)cc1
4. Nc1cccc(CNCc2cccc(-c3ccc(-c4nc5ccccc5[nH]4)s3)c2)c1
5. Cc1cc(NN=Cc2cccc([N+](=O)[O-])c2)c2ccc(F)cc2n1
6. O=C(Nc1ccc(F)c(Cl)c1)NC1CCN(c2ccnc3cc(Cl)ccc23)C1 (centres undefined)

Response:
1. 31
2. 88
3. 50
4. 90
5. 98
6. 74

Each of the following entries comes with a recorded value; kindly state growth inhibition for each.
1. NC(N)=Nc1cccc(NC(=O)Nc2cccc(N=C(N)N)c2)c1
2. Cc1cccc2[nH]c(-c3ccc(-c4cccc(NC(=O)NCc5ccc(F)cc5)c4)cc3)nc12
3. Cc1cc(NC2CCN(Cc3ccccc3)CC2)nc(NCCCCc2ccccc2)n1
4. CC(=O)N[C@H](C(=O)Nc1ccc(-c2ccc(-c3nc4ccc(C(F)(F)F)cc4[nH]3)cc2)cc1)C(C)C

Response:
71
100
60
76

---

test: inhibition of 3D7 malaria parasite growth – strain 3D7 (AID 2306);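 also: 0% = DMSO wells and 100% = chloroquine plus artemisinin control wells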; details: P. falciparum 3D7 erythrocytic growth, LDH absorbance, 72 h; at 2 µM; hits give high values
property: growth inhibition (%)
Numbers only, in %.

# example entries with known answers
Query: Quick check: growth inhibition of Nc1ccc(-c2nc3ccc(Cc4ccc5nc(-c6ccc(N)cc6)[nH]c5c4)cc3[nH]2)cc1 ?
Response: 100

Query: Quick check: growth inhibition of COc1cccc2cc(C(=O)N[C@@H](CC(C)C)C(=O)NC(/C=N/NC(=O)c3ccccc3)CCc3ccccc3)oc12 (stereo partly drawn) ?
Response: 88

Now for another entry.
Query: Quick check: growth inhibition of O=C(Nc1cc(C(F)(F)F)cc(C(F)(F)F)c1)c1cc(C(F)(F)F)cc(C(F)(F)F)c1 ?
Response: 101

---

test: HepG2 cytotoxicity, primary screen, cytotoxicity control for P. falciparum antimalarial project, cell-based, ATP luminescence (AID 2303); conditions: HepG2 viability, 24-48 h, at 10 µM;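 also: 0% = DMSO wells and 100% = digitonin-killed cells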
The source made the active and inactive calls.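 Rule for the calls: active = inhibition above 50%; inactive = the rest.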
I would appreciate it if you answered using one of these outcomes: yes (1) = active, no (0) = inactive

Example entries begin here.
Query: Hey, what did the test say about Cc1nc2nc(N)nc(N)c2c(C)c1Cc1c(Cl)cccc1Cl ?
Response: no (0)

Query: Hey, what did the test say about CS(=O)(=O)N(CC(O)Cn1c2ccc(Cl)cc2c2cc(Cl)ccc21)c1ccccc1 (stereo not given) ?
Response: no (0)

Query: Hey, what did the test say about O=C(NCC1CN(Cc2ccc(N3CCCC3)o2)CCCO1)c1ccc2c(c1)OCO2 (stereo not given) ?
Response: no (0)

Query: Hey, what did the test say about COC(=O)c1noc(C)c1I ?
Response: no (0)

Query: Hey, what did the test say about N#Cc1ccc(CN2CCC(Oc3ccc(NC(=O)c4ccccc4)cc3Cl)CC2)cc1 ?
Response: no (0)

Query: Hey, what did the test say about CN(C)CCC(O)(c1ccc(Br)cc1)c1cccnc1 (stereo not given) ?
Response: no (0)

Query: Hey, what did the test say about CC(C)NCc1cccc(-c2ccc(NC(=O)c3cccc(C#N)c3)cc2)c1 ?
Response: no (0)

Query: Hey, what did the test say about CC(C)c1ccc(NC(=O)NC2CCN(CCCCCNC(=O)/C=C/c3ccc(Cl)c(Cl)c3)CC2)cc1 ?
Response: no (0)

Next:
Query: Hey, what did the test say about COc1ccc2nccc([C@@H](O)CN3CCC(NCCOc4cccc(C(F)(F)F)c4)CC3)c2c1 ?
Response: no (0)

Query: Hey, what did the test say about c1ccc(CCNCc2cccc(-c3ccc(CNc4ccc5ncccc5c4)cc3)c2)cc1 ?
Response: no (0)

Query: Hey, what did the test say about O=S(=O)(Nc1cccc(CCN2CCCCC2CCN2CCCC2)c1)c1ccc(Oc2ccccc2)cc1 (stereo not given) ?
Response: yes (1)

Query: Hey, what did the test say about COc1ccc(NC(=O)Nc2ccc(-c3ccccc3)cc2Cl)cc1N1CCN(C)CC1 ?
Response: no (0)

Query: Hey, what did the test say about O=C(NCC(CCCN1CCC(c2c[nH]c3ccccc23)CC1)c1ccccc1)Nc1ccc(Cl)c(Cl)c1 (stereo not given) ?
Response: no (0)

Query: Hey, what did the test say about CN(C)CCOc1cc(NC(=O)Nc2ccc3c(c2)CCCC3=O)ccc1I ?
Response: no (0)

Query: Hey, what did the test say about O=C(NCCCCCN1CCC(c2c[nH]c3ccccc23)CC1)Nc1ccc(Cl)cc1Cl ?
Response: yes (1)

---

target: Calcium-dependent protein kinase 4 (Plasmodium falciparum (isolate 3D7)); experiment: PfCDPK4 kinase inhibitors, biochemical, TCAMS library (AID 1159588); settings: recombinant PfCDPK4, Kinase-Glo ATP depletion luminescence
Potency and affinity values are given separately. Active and inactive are the calls of the source. No cut-off is given here; in the data, nearly all actives have IC50 up to about 0.91 µM.
property: outcome

Query: Quick check: outcome of O=C(NC1CCCCN(Cc2ccc3c(c2)OCCO3)C1)c1cc(-c2ccccc2F)cs1 (centres undefined) ?
Response: inactive

Query: Quick check: outcome of O=C(Nc1ccc(OC2CCN(Cc3ccco3)CC2)c(Cl)c1)c1ccc2ncccc2c1 ?
Response: inactive

Query: Quick check: outcome of N=c1n(Cc2ccc(Cl)cc2)c2ccccc2n1CC(O)c1ccc(Cl)c(Cl)c1 (centres undefined) ?
Response: inactive

Query: Quick check: outcome of Cc1ccc2nc(C)cc(NN=Cc3ccc(Cl)cc3)c2c1 ?
Response: inactive

Query: Quick check: outcome of Cc1nc(NC2=NCN(CCCN3CCOCC3)CN2)nc2c(C)cccc12 ?
Response: inactive

Each of the following entries comes with a recorded value; kindly state outcome for each.
1. CN(CCN)Cc1cccc(-c2cccc(-c3nc4ccc(F)cc4[nH]3)c2)c1
2. CN(CCN)Cc1ccc(-c2ccc(-c3nc4ccc(F)cc4[nH]3)s2)cc1
3. CN1CCN(CCCN(Cc2cccc(-c3ccc(CNCCc4ccccc4)cc3)c2)C(=O)c2cccs2)CC1

Response:
1. inactive
2. inactive
3. inactive

Each of the following entries comes with a recorded value; kindly state outcome for each.
1. COc1ccc(CCNc2nc(N)c3cc(OC)c(OC)cc3n2)cc1
2. CN1CCC(COc2ccc(CN3CCC(NC(=O)c4cccc(Cl)c4)CC3)cc2)CC1
3. CCNc1cc(C(=O)N[C@@H](Cc2ccccc2)[C@H](O)CN[C@@H](C)c2ccccc2)cc(N2CCCC2=O)c1
4. Cc1cc(N[C@@H](Cc2ccccc2)C(=O)NCCc2ccccc2)nc(NCC2CCCCC2)n1
5. CN1C(=C2SC(=Nc3ccc4ncccc4c3)N(Cc3ccccc3)C2=O)Sc2ccc(Cl)cc21
6. CCn1c(Sc2ccc([N+](=O)[O-])c(C#N)c2)nnc1-c1cccc(Cl)c1
7. CC(C)=CCc1c(-c2ccc(O)cc2O)oc2c3c(cc(O)c2c1=O)OC(C)(C)C=C3
8. COc1ccc(-c2ccc(NC(=O)c3ccc(Cl)cc3)cc2)cc1CN1CCC(O)CC1

Response:
1. inactive
2. inactive
3. inactive
4. inactive
5. inactive
6. inactive
7. inactive
8. inactive

Each of the following entries comes with a recorded value; kindly state outcome for each.
1. COc1cc(F)c2nccc([C@@H](O)CN3CCC(NCc4cc5c(cc4F)OCCO5)CC3)c2c1
2. CN1CCN(CCCN(Cc2ccc(-c3cccc(CNCc4ccc5c(c4)OCO5)c3)cc2)C(=O)NCCc2ccccc2)CC1
3. NC(N)=Nc1nc(-c2cccc(NC(=O)NCc3cccc4ccccc34)c2)cs1

Response:
1: inactive; 2: inactive; 3: inactive

Each of the following entries comes with a recorded value; kindly state outcome for each.
1. FC(F)(F)c1cccc2c(NN=Cc3ccccc3)ccnc12
2. Cc1ccc(NC(=O)c2ccc(CN3CCCN(CC4CCCCC4)CC3)cc2)cc1C

Response:
1: inactive; 2: inactive
